# Tested on: eNOS promoter
# measurement_description: Activation of eNOS transcription (eNOS promoter-luciferase reporter gene assay)
# Assay type: cell-based
# condition_summary: human endothelial cell line stably transfected with eNOS promoter-firefly luciferase construct; 18 h incubation; EC50 determined graphically; read-out: EC50 of transcription induction ratio (TIR)
pEC50: −log10 of the molar value. Where a name gives a salt, the structure may show the parent alone.
experimental_readout: pEC50

# annotated cases, reported pEC50 shown
CCC1C(=O)N(Cc2ccc(C(C)(C)C)cc2)CC2N(CCc3ccncc3)c3ccc([N+](=O)[O-])cc3C(=O)N12 (centres unmarked) [Example 40, trifluoroacetic acid salt]; 6.66
CC(C)[C@H]1C(=O)N(CCCCc2ccccc2)CC2N(CCCn3ccnc3)c3ccc(C(F)(F)F)cc3C(=O)N21 (some centres unmarked) [Example 10, trifluoroacetic acid salt]; 4.92
CC(C)[C@H]1C(=O)N(CCCCc2ccccc2)CC2N(CCc3ccncc3)c3ccc([N+](=O)[O-])cc3C(=O)N21 (some centres unmarked) [Example 7, trifluoroacetic acid salt]; 4.70
CC(C)[C@H]1C(=O)N(CCCCc2ccccc2)CC2N(CCCn3ccnc3)c3ccc([N+](=O)[O-])cc3C(=O)N21 (some centres unmarked) [Example 1, trifluoroacetic acid salt]; 5.66
O=C1[C@H](Cc2cccc(F)c2)N2C(=O)c3cc([N+](=O)[O-])ccc3N(CCCn3ccnc3)C2CN1CCCCc1ccccc1 (some centres unmarked) [Example 4, trifluoroacetic acid salt]; 5.10
CC(C)[C@H]1C(=O)N(Cc2ccc(C(F)(F)F)cc2)CC2N(CCc3ccncc3)c3ccc(C(F)(F)F)cc3C(=O)N21 (some centres unmarked) [Example 12, trifluoroacetic acid salt]; 4.70
CC(C)C1C(=O)N(Cc2ccc(C(C)(C)C)cc2)CC2N(CCCn3ccnc3)c3cccnc3C(=O)N12 (centres unmarked) [Example 36, trifluoroacetic acid salt]; 4.00

(A) COc1ccc(CN2CC3N(CCCn4ccnc4)c4ccc(C(F)(F)F)cc4C(=O)N3[C@@H](C(C)C)C2=O)c(OC)c1 (some centres unmarked) [Example 14, trifluoroacetic acid salt]
(B) Cc1ccc2c(n1)C(=O)N1C(C(C)C)C(=O)N(Cc3ccc(C(C)(C)C)cc3)CC1N2CCCn1ccnc1 (centres unmarked) [Example 37, trifluoroacetic acid salt]
(C) CC(C)[C@H]1C(=O)N(Cc2cccc3ccccc23)CC2N(CCCn3ccnc3)c3ccc([N+](=O)[O-])cc3C(=O)N21 (some centres unmarked) [Example 3, trifluoroacetic acid salt]
(D) CC(C)C1C(=O)N(Cc2ccc(C(C)(C)C)cc2)CC2N(CCCn3ccnc3)c3ccc([N+](=O)[O-])cc3C(=O)N12 (centres unmarked) [Example 39, trifluoroacetic acid salt]
Put the items in order so that reported pEC50 rises from first to last. Please reply with the labels ordered as requested. Many thanks. B, C, A, D
(B: 4.00, C: 4.70, A: 4.92, D: 6.54)

Reference source: patent US7132536B2
